Target: T1, recombinant biotinylated CD71 extracellular domain (Sino Biologics) with an N-terminal 6His tag (human, UniProt P02786 89-760, biotinylated (site not stated))
T1 construct: extracellular domain; also called hCD71; huCD71 ECD
T1 sequence (P02786 other isoform, or with tags, fused parts or gaps): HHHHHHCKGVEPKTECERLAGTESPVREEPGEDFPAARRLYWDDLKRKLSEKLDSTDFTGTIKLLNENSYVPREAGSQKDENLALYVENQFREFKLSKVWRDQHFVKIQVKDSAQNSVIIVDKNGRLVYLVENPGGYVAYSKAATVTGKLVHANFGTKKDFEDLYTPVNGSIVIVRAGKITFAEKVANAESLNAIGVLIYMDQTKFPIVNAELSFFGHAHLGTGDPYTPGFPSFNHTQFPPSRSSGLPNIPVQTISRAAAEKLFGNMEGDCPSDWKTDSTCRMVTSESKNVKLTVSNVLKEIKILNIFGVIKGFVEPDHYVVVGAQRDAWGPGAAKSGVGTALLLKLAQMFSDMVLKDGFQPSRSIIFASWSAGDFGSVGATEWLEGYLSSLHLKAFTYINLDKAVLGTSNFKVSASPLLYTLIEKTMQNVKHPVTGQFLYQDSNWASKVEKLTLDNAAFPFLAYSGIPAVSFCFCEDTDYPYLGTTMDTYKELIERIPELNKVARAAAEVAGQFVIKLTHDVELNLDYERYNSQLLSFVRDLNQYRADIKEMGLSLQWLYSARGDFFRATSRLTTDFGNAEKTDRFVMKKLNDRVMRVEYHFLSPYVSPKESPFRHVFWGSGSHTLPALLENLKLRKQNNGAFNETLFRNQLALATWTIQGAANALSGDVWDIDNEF
Assay: primary solution ELISA screen
Reported RLU values follow for various binders
Reply numerically in RLU, unit not repeated.

SEQ ID NO 83 (designed binder, not shown: small tags and cut ends, FN3 domain, hit of the apical domain panning) MLPAPKNLVVSRVTEDSARLSWTAPDAAFDSFPIAYAEPRPDGEAIVLTVPGSERSYDLTGLKPGTEYSVLIHGVKGGLLSSPLSAISTT    3.26e+06

What value of RLU has been reported for the following binder? SEQ ID NO 47 (designed binder, not shown: small tags and cut ends, FN3 domain, hit of the apical domain panning) MLPAPKNLVVSRVTEDSARLSWTAPDAAFDSFGIVYLEMMVTGEAIVLTVPGSERSYDLTGLKPGTEYDVPILGVKGGTRSVPLSAIFTT 1.99e+06

I would be grateful if you could share the reported RLU for SEQ ID NO 98 (designed binder, not shown: small tags and cut ends, FN3 domain, hit of the apical domain panning) MLPAPKNLVVSRVTEDSARLSWTAPDAAFDSFGIAYDEWPEFGEAIVLTVPGSERSYDLTGLKPDTEYIVEIYGVKGGWFSWPLSAIFTT . 1.31e+06

Give its RLU value. Item: SEQ ID NO 25 (designed binder, not shown: small tags and cut ends, FN3 domain, hit of the apical domain panning) MLPAPKNLVVSRVTEDSARLSWTAPDAAFDSFPIWYLEKSYQGEAIVLTVPGSERSYDLTGLKPGTEYVVPIIGVKGGRDSCPLSAIFTT 222000

Bench note: what RLU did SEQ ID NO 21 (designed binder, not shown: small tags and cut ends, FN3 domain, hit of the apical domain panning) MLPAPKNLVVSRVTEDSARLSWTAPDAAFDSFSIRYNEFIVAGEAIVLTVPGSERSYDLTGLKPGTEYDVPIAGVKGGGASWPLSAIVTT show? 579000

For SEQ ID NO 20 (designed binder, not shown: small tags and cut ends, FN3 domain, hit of the apical domain panning) MLPAPKNLVVARVTEDSARLSWTAPDAAIDSFPIDYSEYWWGGEAIVLTVPGSERSYDLTGLKPGTEYPVLITGVKGGYRSGPLSAIFTT , what is its reported RLU? 791000

Give its RLU value. Item: SEQ ID NO 5 (designed binder, not shown: small tags and cut ends, FN3 domain, hit of the apical domain panning) MLPAPKNLVVSEVTEDSARLSWQGVARAFDSFLITYREQIFAGEVIVLTVPGSERSYDLTGLKPGTEYWVYIWGVKGGKPSFPLRAGFTT 1.73e+06

Query: RLU; subject: SEQ ID NO 42 (designed binder, not shown: small tags and cut ends, FN3 domain, hit of the apical domain panning) MLPAPKNLVVSRVTEDSARLSWTAPDAAFDSFLIPYAETSPSGEAIVLTVPGSERSYDLTGLKPGTEYSVLIHGVKGGDYSEPLSAIFTT 586000

Record request: RLU value, item SEQ ID NO 66 (designed binder, not shown: small tags and cut ends, FN3 domain, hit of the apical domain panning) MLPAPKNLVVSRVTEDSARLSWTAPDAAFDSFTIDYDEPRSPGEAIVLTVPGSERSYDLTGLKPGTEYRVFIWGIKGGDTSFPLSAIFTT 232000

Reference for the values: patent US20220332795A1
